Property: melting point

Input line: Name the recorded melting point of the item CN(C)c1nc(Cc2ccc(NC(=O)c3cccc(-c4ccccc4)c3)cc2)nc(N2CCCC2)c1CC(=O)O in your answer.
Output line: 147 to 179 °C

Input line: Name the recorded melting point of the item CN(C)c1nc(Cc2ccc(NC(=O)c3cccc(Oc4ccccc4)c3)cc2)nc(N2CCCC2)c1CC(=O)O in your answer.
Output line: 123 to 125 °C

Input line: Name the recorded melting point of the item CN(C)c1nc(Cc2ccc(NC(=O)c3cccc(Cl)c3)cc2)ncc1CC(=O)O in your answer.
Output line: 111 to 113 °C

Input line: Name the recorded melting point of the item CC(c1ccc(NC(=O)c2ccc(Cl)cc2)cc1)c1ncc(CC(=O)O)c(N(C)C)n1 (stereo not shown) in your answer.
Output line: 131 to 134 °C

Input line: Name the recorded melting point of the item COCc1nc(Cc2ccc(NC(=O)OCc3ccccc3)cc2)nc(N(C)C)c1CC(=O)O in your answer.
Output line: 88 to 90 °C

Input line: Name the recorded melting point of the item CN(C)c1nc(Cc2ccc(NC(=O)c3ccc(Cl)cc3)cc2)nc(N2CCCC2)c1CC(=O)O in your answer.
Output line: 140 to 142 °C

Input line: Name the recorded melting point of the item CN(C)c1nc(Cc2ccc(NC(=O)OCc3ccc(C(F)(F)F)cc3)cc2)ncc1CC(=O)O in your answer.
Output line: 91 to 93 °C

* * *

- Subject of test: human CRTH2 (Homo sapiens, UniProt Q9Y5Y4)
- Construct: expressed in transfected cells; host or cells: L1.2 cells, pEAK expression vector, puromycin-selected
- Sequence (Q9Y5Y4 whole entry): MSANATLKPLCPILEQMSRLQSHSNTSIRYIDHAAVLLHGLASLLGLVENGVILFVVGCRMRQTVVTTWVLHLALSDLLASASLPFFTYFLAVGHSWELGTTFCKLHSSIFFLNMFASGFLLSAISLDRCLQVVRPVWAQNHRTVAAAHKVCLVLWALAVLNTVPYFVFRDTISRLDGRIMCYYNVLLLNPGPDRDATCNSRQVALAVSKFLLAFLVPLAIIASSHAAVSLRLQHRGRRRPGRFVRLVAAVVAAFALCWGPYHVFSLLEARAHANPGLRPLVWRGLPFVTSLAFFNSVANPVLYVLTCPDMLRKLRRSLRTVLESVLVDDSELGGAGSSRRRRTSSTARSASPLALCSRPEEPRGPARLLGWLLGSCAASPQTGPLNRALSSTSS
- Procedure details: Measurement of Ca2+ mobilization in the human CRTH2-transfected L1.2 cell line (Assay 1)
- Type: cell-based
- Condition set: PGD2-induced Ca2+ mobilization in CRTH2-transfected L1.2 cells; compounds as yielded by solid phase synthesis, purity about 40 to 90%; read-out: Activity class
Property: IC50

Input line: Name the recorded IC50 of the item CN(C)c1nc(Cc2ccc(NC(=O)/C=C/c3ccc(Cl)cc3)cc2)ncc1CC(=O)O in your answer.
Output line: < 10 nM

Input line: Name the recorded IC50 of the item Cc1nc(Cc2ccc(NC(=O)c3ccc4ccccc4c3)cc2)nc(N(C)C)c1CC(=O)O in your answer.
Output line: < 10 nM

Input line: Name the recorded IC50 of the item CN(C)c1nc(Cc2ccc(NC(=O)c3ccccc3-c3ccccc3)cc2)nc(N2CCCC2)c1CC(=O)O in your answer.
Output line: > 500 nM

* * *

Property: melting point

Input line: Name the recorded melting point of the item CN(C)c1nc(Cc2ccc(NC(=O)c3ccc(Cl)c(Cl)c3)cc2)nc(Cl)c1CC(=O)O in your answer.
Output line: > 168 °C

Input line: Name the recorded melting point of the item CN(C)c1nc(Cc2ccc(NC(=O)c3ccc4ccccc4n3)cc2)nc(Cl)c1CC(=O)O in your answer.
Output line: 135 to 142 °C

Input line: Name the recorded melting point of the item CCc1nc(Cc2ccc(NC(=O)c3ccc(C(F)(F)F)cc3)cc2)nc(N(C)C)c1CC(=O)O in your answer.
Output line: 153 to 155 °C

Input line: Name the recorded melting point of the item CC(C)C(=O)Nc1ccc(Cc2nc(Cl)c(CC(=O)O)c(N(C)CC(=O)NC3CCCC3)n2)cc1 in your answer.
Output line: > 142 °C

Input line: Name the recorded melting point of the item CN(C)c1nc(Cc2ccc(NC(=O)/C=C/c3ccc(C(F)(F)F)cc3)cc2)nc(Cl)c1CC(=O)O in your answer.
Output line: > 199 °C
